- Test system: Plasmodium falciparum
- assay.info: GSK_TCMDC: Inhibition of Plasmodium falciparum Dd2 in whole red blood cells, using parasite LDH activity as an index of growth. Test compounds present at 2uM
- Type: functional
measurement.type: Inhibition

I have this molecule here, "CCc1n[nH]c(C(=O)Nc2cccc(N3CCCC3)c2)c1C" , and I need its recorded Inhibition.
52%

I have this molecule here, "CCNc1cc(C(=O)N[C@@H](Cc2cc(F)cc(F)c2)[C@H](O)CNCc2cccc(C(F)(F)F)c2)cc(N2CCCCS2(=O)=O)c1.Cl" , and I need its recorded Inhibition.
80%

I have this molecule here, Cc1c[nH]c2ccc(/C=C/C(=O)NC3CCC(CCN4CCc5ccc(C#N)cc5CC4)CC3)cc12.Cl (stereo not given) , and I need its recorded Inhibition.
91%

I have this molecule here, "O=C(Nc1ccccc1F)N(CCCn1ccnc1)Cc1csc(-c2ccc(CNCc3ccccc3)cc2)n1.O=C(O)C(F)(F)F" , and I need its recorded Inhibition.
26%

I have this molecule here, CCCN(CCC)CC(O)COc1ccccc1C(=O)Nc1ccccc1 (stereo not given) , and I need its recorded Inhibition.
95%

I have this molecule here, O=C(/C=C/c1ccccc1)N1CCOC(CCN2CCC(c3ccccc3)CC2)(c2ccc(Cl)c(Cl)c2)C1 (stereo not given) , and I need its recorded Inhibition.
63%

I have this molecule here, "CCCOc1ccc(C=C(CC(=O)O)c2nc3ccccc3s2)cc1OCC" , and I need its recorded Inhibition.
84%

I have this molecule here, "CN1CCN(Cc2cccc(-c3ccc4c(Nc5ccc(Oc6ccccc6)cc5)ccnc4c3)c2)CC1" , and I need its recorded Inhibition.
100%

I have this molecule here, "COc1ccc(C(=O)Cn2nc(-c3ccc(Cl)cc3)ccc2=O)c(OC)c1" , and I need its recorded Inhibition.
70%

I have this molecule here, "CCOc1ccc(-c2nc(NC(=O)COc3ccc(OC)cc3)sc2C)cc1" , and I need its recorded Inhibition.
87%

I have this molecule here, Cc1cc(OCC2CCCO2)c2cc(NC(=O)C(=O)Nc3ccc4nc(C)cc(OCC5CCCO5)c4c3)ccc2n1 (stereo not given) , and I need its recorded Inhibition.
32%

I have this molecule here, "COc1ccc(-c2ccc(NC(=O)c3ccc(Cl)cc3)cc2)cc1CN(C)CCN(C)C.O=C(O)C(F)(F)F" , and I need its recorded Inhibition.
61%

I have this molecule here, "Cl.N=C(N)NN=Cc1cc([N+](=O)[O-])ccc1Sc1ccccc1CO" , and I need its recorded Inhibition.
0%

I have this molecule here, "CC(C)c1cc(Oc2c(I)cc(CCNC(=N)N)cc2I)ccc1O.Cl" , and I need its recorded Inhibition.
54%

I have this molecule here, "COc1ccc(-c2ccnc(-c3cccc(-c4ccccn4)n3)c2)cc1" , and I need its recorded Inhibition.
84%

I have this molecule here, "COc1ccc2ccccc2c1CNCC1CCN(CC2CCCCC2)CC1.O=C(O)C(F)(F)F" , and I need its recorded Inhibition.
27%

I have this molecule here, "C=CCc1cc(Br)ccc1OCCCOc1c(C)nc(N)nc1N.Cl" , and I need its recorded Inhibition.
96%

I have this molecule here, "COc1ccc(CCNc2nc(N)c3cc(OC)c(OC)cc3n2)cc1.Cl" , and I need its recorded Inhibition.
1%

I have this molecule here, "CNC(=O)c1ccccc1Nc1nc(Nc2ccc(N3CCOCC3)cc2)ncc1Cl.Cl" , and I need its recorded Inhibition.
97%

I have this molecule here, "CN(C)CCN(C)Cc1ccc(-c2ccc3c(Nc4ccc(F)cc4Cl)ccnc3c2)o1" , and I need its recorded Inhibition.
100%

Origin of measurements: ChEMBL document CHEMBL1157539
